Provide the reported Kd of each item.
TESTED ON: SR-B1 (Scavenger receptor class B protein 1) (Homo sapiens, UniProt Q8WTV0)
Sequence (Q8WTV0 33-443 limits assumed): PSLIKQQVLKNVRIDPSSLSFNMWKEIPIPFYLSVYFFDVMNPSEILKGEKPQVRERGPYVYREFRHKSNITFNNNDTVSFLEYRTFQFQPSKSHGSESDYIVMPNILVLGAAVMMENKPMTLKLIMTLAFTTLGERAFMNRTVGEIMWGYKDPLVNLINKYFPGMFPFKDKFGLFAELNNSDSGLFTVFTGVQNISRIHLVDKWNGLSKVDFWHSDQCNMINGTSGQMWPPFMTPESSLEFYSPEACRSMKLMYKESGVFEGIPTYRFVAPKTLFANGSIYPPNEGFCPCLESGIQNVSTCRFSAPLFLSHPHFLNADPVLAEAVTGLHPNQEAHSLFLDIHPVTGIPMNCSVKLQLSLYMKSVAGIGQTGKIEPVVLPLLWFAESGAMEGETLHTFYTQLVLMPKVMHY
Expressed in nM, but write only the number.

Data request: Reported Kd, compound CC1=C(/C=C/C(C)=C/C=C/C(C)=C/C=C/C=C(C)/C=C/C=C(C)/C=C/C2=C(C)C[C@@H](O)CC2(C)C)C(C)(C)C[C@H](O)C1 : ____
Data returned: 1600

Data request: Also CC1=C[C@H](O)CC(C)(C)[C@H]1/C=C/C(C)=C/C=C/C(C)=C/C=C/C=C(C)/C=C/C=C(C)/C=C/C1=C(C)C[C@@H](O)CC1(C)C ?
Data returned: 2040

Data request: Also CC1=C(/C=C/C(C)=C/C=C/C(C)=C/C=C/C=C(C)/C=C/C=C(C)/C=C/C2=C(C)C[C@H](O)CC2(C)C)C(C)(C)C[C@H](O)C1 ?
Data returned: 3100

###

Dear all, this message contains pKd results, target or system CD36 (Cluster determinant 36) (Homo sapiens, UniProt P16671).
As a rule, pKd stands for the negative log10 of the concentration, concentration in M.

Data request: Reported pKd, compound CC1=C(/C=C/C(C)=C/C=C/C(C)=C/C=C/C=C(C)/C=C/C=C(C)/C=C/C2=C(C)C[C@@H](O)CC2(C)C)C(C)(C)C[C@H](O)C1 : ____
Data returned: 6.04

Data request: Also CC1=C(/C=C/C(C)=C/C=C/C(C)=C/C=C/C=C(C)/C=C/C=C(C)/C=C/C2=C(C)C[C@H](O)CC2(C)C)C(C)(C)C[C@H](O)C1 ?
Data returned: 5.78

Data request: Also CC1=C[C@H](O)CC(C)(C)[C@H]1/C=C/C(C)=C/C=C/C(C)=C/C=C/C=C(C)/C=C/C=C(C)/C=C/C1=C(C)C[C@@H](O)CC1(C)C ?
Data returned: 6.14

###

TESTED ON: SR-B2 (Scavenger receptor class B protein 2) (Homo sapiens)
Sequence (Q14108 whole entry): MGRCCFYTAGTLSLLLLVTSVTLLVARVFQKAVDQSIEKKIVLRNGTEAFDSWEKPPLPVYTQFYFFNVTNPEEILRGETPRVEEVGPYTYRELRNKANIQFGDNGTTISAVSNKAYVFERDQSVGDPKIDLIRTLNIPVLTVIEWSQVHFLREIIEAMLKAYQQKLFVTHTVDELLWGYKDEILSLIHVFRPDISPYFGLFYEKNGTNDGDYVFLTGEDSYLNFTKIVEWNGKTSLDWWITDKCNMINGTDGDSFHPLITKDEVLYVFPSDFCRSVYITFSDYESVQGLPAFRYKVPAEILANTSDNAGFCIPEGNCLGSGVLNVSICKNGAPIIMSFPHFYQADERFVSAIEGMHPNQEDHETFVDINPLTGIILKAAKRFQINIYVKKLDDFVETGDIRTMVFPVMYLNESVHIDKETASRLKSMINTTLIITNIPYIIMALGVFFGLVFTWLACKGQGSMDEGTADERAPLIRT
Provide the reported Kd of each item.
Expressed in µM, but write only the number.

Data request: Reported Kd, molecule CC1=C(/C=C/C(C)=C/C=C/C(C)=C/C=C/C=C(C)/C=C/C=C(C)/C=C/C2=C(C)C[C@H](O)CC2(C)C)C(C)(C)C[C@H](O)C1 : ____
Data returned: 3.9

Data request: Also CC1=C(/C=C/C(C)=C/C=C/C(C)=C/C=C/C=C(C)/C=C/C=C(C)/C=C/C2=C(C)C[C@@H](O)CC2(C)C)C(C)(C)C[C@H](O)C1 ?
Data returned: 1.53

Data request: Also CC1=C[C@H](O)CC(C)(C)[C@H]1/C=C/C(C)=C/C=C/C(C)=C/C=C/C=C(C)/C=C/C=C(C)/C=C/C1=C(C)C[C@@H](O)CC1(C)C ?
Data returned: 2.51

The reported measurements were obtained from paper PMC5698089.
